TEST METHOD NOTES: Confirmatory qHTS for small molecule stabilizers of the endoplasmic reticulum resident proteome: Secreted ER Calcium Modulated Protein (SERCaMP) assay (AID 1508628); further: nearly all actives have a fitted effect of over 40% in size
PARTICULARS: SERCaMP secreted luciferase ER calcium/proteostasis reporter; series mostly up to 76.3 µM
Results filed as inconclusive are left out. The source made the active and inactive calls. The call rests on the fitted dose curve; in most records, active means well fitted inhibition curve with a large enough effect; inconclusive means small, poorly fitted or top-dose-only effect; inactive means no such curve, though single readings can be large or run the other way.
Hi there, use one of these labels in your reply, thanks! label 1 = active, label 0 = inactive

Past entries and their recorded results:
>  <COMPOUND>
COc1ccc(-c2nc3cnc(N4CCNCC4)nc3n(CCc3ccccc3)c2=O)cc1

>  <GROUP LABEL>
label 0

$$$$
>  <COMPOUND>
COc1ccc(-c2nc3cnc(N4CCN(C)CC4)nc3n(Cc3cccc(OC)c3)c2=O)cc1

>  <GROUP LABEL>
label 0

$$$$
>  <COMPOUND>
Clc1ccccc1-c1nc(N2CCNCC2)c2ccccc2n1

>  <GROUP LABEL>
label 1

$$$$

Exercise: Hello, I am checking results. What call was entered for COc1ccc(CNc2ncnc3ccc(-c4ccccc4OC)cc23)c(OC)c1 ?
Key: label 1

Exercise: Hello, I am checking results. What call was entered for FC(F)(F)c1ccccc1-c1nc(N2CCNCC2)c2ccccc2n1 ?
Key: label 1

Exercise: Hello, I am checking results. What call was entered for COc1ccc(CNc2ncnc3ccc(-c4cccc(C#N)c4)cc23)c(OC)c1 ?
Key: label 1

Exercise: Hello, I am checking results. What call was entered for CN1CCN(c2ncc3nc(-c4ccccc4)c(=O)n(CCc4ccccc4)c3n2)CC1 ?
Key: label 1

Exercise: Hello, I am checking results. What call was entered for OC[C@H]1NC[C@@H](O)[C@@H](O)[C@@H]1O ?
Key: label 0

###

TEST METHOD NOTES: qHTS drug screen for cell cycle checkpoint inhibitors in PARPi-resistant BRCA-mutant ovarian cancer cell lines. (AID 1963452)
PARTICULARS: PEO1/OlaR viability, CellTiter-Glo luminescence, 96 h; measured here: PEO1 parental Z-AUC; stronger effect = lower value
MEASUREMENT KIND: Z-AUC
// return a plain number; no unit text

Known results for compounds:
>  <COMPOUND>
Nc1nc(OC(c2ccc(-c3cccc(F)c3)cc2)C(F)(F)F)cc(-c2ccc(C[C@H](N)C(=O)O)cc2)n1 (stereo not given in full)

>  <Z-AUC>
-0.615

$$$$
>  <COMPOUND>
O=C1OC2(CCC(C(=O)Nc3ccn(-c4ccccc4F)n3)CC2)c2cnccc21 (stereo not given)

>  <Z-AUC>
0.881

$$$$
>  <COMPOUND>
Cc1nnn(C)c1-c1cnc2c3ccc(C(C)(C)O)cc3n([C@H](c3ccccc3)C3CCOCC3)c2c1

>  <Z-AUC>
-1.84

$$$$
>  <COMPOUND>
O=C1NC(=O)[C@@H](c2c[nH]c3ccccc23)[C@H]1c1cn2c3c(cccc13)CCC2

>  <Z-AUC>
-0.673

$$$$
>  <COMPOUND>
C=CC(=O)N1CCC(C2CCNc3c(C(N)=O)c(-c4ccc(Oc5ccccc5)cc4)nn32)CC1 (stereo not given)

>  <Z-AUC>
-0.23

$$$$

Exercise: Please indicate Z-AUC recorded for COc1ccc2[nH]c3c(c2c1)CCN[C@]31CS[C@@H]2c3c(OC(C)=O)c(C)c4c(c3[C@H](COC1=O)N1[C@@H]2[C@H]2c3c(cc(C)c(OC)c3O)C[C@@H]([C@@H]1O)N2C)OCO4
Key: -2.79

Exercise: Please indicate Z-AUC recorded for CCO[C@@H]1OC(=O)C[C@@H]1NC(=O)[C@@H]1CCCN2C(=O)CC[C@H](NC(=O)c3nccc4ccccc34)C(=O)N12
Key: -0.455

###

System: CP194
TEST METHOD NOTES: qHTS profiling for inhibitors of Plasmodium falciparum proliferation (AID 504749); further: nearly all actives have a fitted effect of over 60% in size
PARTICULARS: P. falciparum in erythrocytes, SYBR Green DNA, 72 h; series mostly up to 28.7 µM
Description: NIH National Institute of Allergy and Infectious Diseases [NIAID] NIH Chemical Genomics Center [NCGC] […] Because mature erythrocytes lack DNA, only Plasmodium-derived DNA is detected. NCGC Assay Protocol Summary: The SYBR Green viability assay was adapted from a method described previously (Plouffe et al., 2008). […] The following morning, fluorescence intensity at 485(14) nm excitation and 535(25) nm emission wavelengths was measured on an EnVision (Perkin Elmer) plate reader. […]
Records with an inconclusive call do not appear. Calls of active or inactive are those of the source. The call rests on the fitted dose curve; in most records, active means well fitted inhibition curve with a large enough effect; inconclusive means small, poorly fitted or top-dose-only effect; inactive means flat fitted curve, though single readings scatter.
Hi there, use one of these labels in your reply, thanks! 1.0 for active, 0.0 for inactive

Past entries and their recorded results:
>  <MOLECULE>
C=C1/C(=C\C=C2/CCC[C@]3(C)[C@@H]([C@H](C)CCCC(C)(C)O)CC[C@@H]23)C[C@@H](O)C[C@@H]1O

>  <GROUP LABEL>
0.0

$$$$
>  <MOLECULE>
CO[C@H]1/C=C/O[C@@]2(C)Oc3c(C)c(O)c4c(O)c(c(/C=N\N5CCN(C6CCCC6)CC5)c(O)c4c3C2=O)NC(=O)/C(C)=C\C=C\[C@H](C)[C@H](O)[C@@H](C)[C@@H](O)[C@@H](C)[C@H](OC(C)=O)[C@@H]1C

>  <GROUP LABEL>
1.0

$$$$

Exercise: Hello, I am checking results. What call was entered for COc1ccc(CCNC[C@@H](O)c2ccc(O)cc2)cc1OC ?
Key: 0.0

Exercise: Hello, I am checking results. What call was entered for COc1cc2c(cc1OC)C(c1ccccc1)CN(C)CC2 (stereo unspecified) ?
Key: 0.0

Exercise: Hello, I am checking results. What call was entered for C[C@@]12C(=O)OC(=O)[C@]1(C)[C@H]1CC[C@@H]2O1 ?
Key: 1.0

Exercise: Hello, I am checking results. What call was entered for Oc1ccc(/C=C\c2cc(O)cc(O)c2)cc1 ?
Key: 0.0

###

TEST METHOD NOTES: qHTS Assay for Lipid Storage Modulators (AID 1519); further: on the % scale 0 is the no-effect control and ±100 the full control effect
PARTICULARS: Drosophila S3 cells, BODIPY lipid droplet/cell ratio, laser cytometry; at 57.5 µM (top of the series); cells loaded with oleic acid
Records with an inconclusive call do not appear.
MEASUREMENT KIND: activity change, negative = inhibition (%)
All answers are understood in %, so give the number only.

>  <RECORD SMILES>
c1cncc(-c2cncnc2NC2CCNCC2)c1

>  <UNITS LABEL>
%

>  <activity change, negative = inhibition>
6.71

$$$$
>  <RECORD SMILES>
COC(=O)N1CCC2(CCN(C(=O)Nc3ccccc3)CC2)CC1

>  <UNITS LABEL>
%

>  <activity change, negative = inhibition>
5.74

$$$$
>  <RECORD SMILES>
Cn1c(=O)c(-c2ccc(Cl)cc2)nc2cnc(Nc3ccccc3)nc21

>  <UNITS LABEL>
%

>  <activity change, negative = inhibition>
-14.5

$$$$
>  <RECORD SMILES>
O=C(c1csnn1)N1CCC2(CC1)CN(c1ccccc1)C2

>  <UNITS LABEL>
%

>  <activity change, negative = inhibition>
4.49

$$$$

Exercise: Please indicate activity change, negative = inhibition recorded for COc1ccccc1-c1cncnc1NCCc1cnc[nH]1
Key: 11.3

Exercise: Please indicate activity change, negative = inhibition recorded for CS(=O)(=O)N1CCC[C@@]2(CCN(Cc3ccccc3)C2)C1
Key: 2.55

Exercise: Please indicate activity change, negative = inhibition recorded for OC[C@H]1O[C@@H](n2cnc3c(NCCc4ccccc4)ncnc32)[C@H](O)[C@H]1O
Key: -0.874

###

TEST METHOD NOTES: qHTS to identify inhibitors of the type 1 interferon - major histocompatibility complex class I in skeletal muscle: primary screen against the NCATS Mechanism Interrogation Plate v5.0 (MIPE) Libary (AID 1347411); further: nearly all actives have a fitted effect of over 65% in size
PARTICULARS: iHSKM cells + IFN-b, HiBiT-tagged MHC-I luminescence, 24 h; series mostly up to 45.8 µM
Inconclusive results are not listed. The source made the active and inactive calls. Calls follow the shape of the dose curve; as a rule, active = well fitted inhibition curve with a large enough effect; inconclusive = small, poorly fitted or top-dose-only effect; inactive = no such curve, though single readings can be large or run the other way.
Hi there, use one of these labels in your reply, thanks! active, inactive

Past entries and their recorded results:
>  <MOLECULE>
COC(=O)[C@H]1[C@@H](O)[C@@]2(O)c3c(OC)cc(O[C@@H]4O[C@@H]([C@@H](O)CO)CO[C@H]4OC)cc3O[C@@]2(c2ccc(OC)cc2)[C@@H]1c1ccccc1

>  <GROUP LABEL>
inactive

$$$$
>  <MOLECULE>
CCC(=O)OCC(=O)C1(OC(=O)CC)C(C)CC2C3CCC4=CC(=O)C=CC4(C)C3(F)C(O)CC21C (configuration not stated)

>  <GROUP LABEL>
inactive

$$$$
>  <MOLECULE>
O=c1oc2c(C3OCCCO3)c(O)ccc2c2c1CNCC2

>  <GROUP LABEL>
inactive

$$$$
>  <MOLECULE>
CC(C)[C@H]1C(=O)N[C@@H](CCCN=C(N)N)C(=O)NCC(=O)N[C@@H](CC(=O)O)C(=O)N[C@H](Cc2ccccc2)C(=O)N1C

>  <GROUP LABEL>
inactive

$$$$
>  <MOLECULE>
COc1ccc2[nH]c3c(c2c1)CCN[C@]31CS[C@@H]2c3c(OC(C)=O)c(C)c4c(c3[C@H](COC1=O)N1[C@@H]2[C@H]2c3c(cc(C)c(OC)c3O)C[C@@H]([C@@H]1O)N2C)OCO4

>  <GROUP LABEL>
active

$$$$

Exercise: Hello, I am checking results. What call was entered for COc1nc(OCc2cccc(-c3ccccc3)c2C)ccc1CNCCNC(C)=O ?
Key: active

Exercise: Hello, I am checking results. What call was entered for Cc1c(-c2ccc(-c3ccccc3F)cc2)nc2ccc(F)cc2c1C(=O)O ?
Key: inactive
